test system: HTT CJ mRNA; test: Gene panel canonical junction qPCR assay: HTT; type: cell-based; settings: Table 3, concentration having 50% response in CJ decrease, read-out: HTT IC50 (decrease in CJ mRNA levels)
pIC50: −log10 of the molar value. Counter-ions that a name gives are not always drawn.
REPORTED_METRIC: pIC50

| COMPOUND | pIC50 |
| --- | --- |
| Cc1cn2nc(NC(=O)c3sc(C4CCNCC4)cc3F)cc2c(C)n1 | 5.00 to 6.00 |
| Cc1nc2c(F)cc(NC(=O)c3sc(C4CCNCC4)cc3F)cc2s1 | 6.00 to 7.00 |
| Cc1cn2cc(NC(=O)c3sc(N4CCN(C)C(C)C4)cc3F)cc(F)c2n1 (stereo not drawn) | < 8.00 |
| Cc1cn2cc(NC(=O)c3cc(Cl)c(N4CCNC(C)C4)s3)cc(F)c2n1 (stereo not drawn) | < 8.00 |
| Cc1cn2cc(NC(=O)c3sc([C@H]4CCN[C@H](C)C4)cc3F)cc(C(F)(F)F)c2n1 | 5.00 to 6.00 |
| Cc1cn2cc(NC(=O)c3sc(C4CCNCC4)cc3F)ncc2n1 | 6.00 to 7.00 |
| Cc1cn2nc(NC(=O)c3sc(N4CCNC(C)C4)cc3F)nc2c(C)n1 (stereo not drawn) [Compound 169, hydrochloride] | < 8.00 |
| Cc1cn2cc(NC(=O)c3sc([C@@H]4CCN[C@H](C)C4)cc3F)cc(F)c2n1 | 6.00 to 7.00 |
| Cn1cc2c(F)cc(NC(=O)c3sc(C4CCNCC4)cc3F)cc2n1 | < 8.00 |
| Cc1cn2nc(NC(=O)c3sc([C@H]4CCN[C@H](C)C4)cc3F)cc(C)c2n1 | 6.00 to 7.00 |

Please state pIC50 for every compound in the list that follows.
1. Cc1cn2cc(NC(=O)c3sc(N4CCN5CCCC5C4)cc3F)cc(F)c2n1 (stereo not drawn)
2. Cc1cn2nc(NC(=O)c3sc([C@@H]4CCN[C@H](C)C4)cc3F)cc(C)c2n1

["< 8.00", "6.00 to 7.00"]

---

test system: HTT CJ mRNA; experiment: Gene panel canonical junction qPCR assay: HTT; type: cell-based; conditions: Table 3, concentration having 50% response in CJ decrease, read-out: HTT IC50 (decrease in CJ mRNA levels)
pIC50: −log10 of the molar value.
Consider the following compounds; for each one, report its pIC50.

Example compounds with recorded pIC50:
| COMPOUND | REPORTED_METRIC | VALUE_OBSERVED |
| --- | --- | --- |
| Cc1cn2cc(NC(=O)c3sc(C4CCNCC4)cc3F)cc(C)c2n1 [Compound 180] | pIC50 | 6.00 to 7.00 |
| Cc1cn2cc(NC(=O)c3sc(C4CCNCC4)cc3F)cc(F)c2n1 [Compound 144] | pIC50 | 6.00 to 7.00 |
| Cc1cn2cc(NC(=O)c3sc(C4CCNCC4)cc3Cl)cc(F)c2n1 [Compound 190] | pIC50 | > 7.00 |
| Cc1cn2nc(NC(=O)c3sc([C@H]4CCN[C@@H](C)C4)cc3F)cc(C)c2n1 [Compound 102] | pIC50 | 6.00 to 7.00 |
| Cc1cn2cc(NC(=O)c3ccc(N4CCNC(C)C4)s3)cc(F)c2n1 (stereo not drawn) [Compound 122] | pIC50 | < 8.00 |

Quick request: pIC50 for each listed item, please.
1. Cc1cn2nc(NC(=O)c3sc([C@@H]4CCN[C@@H](C)C4)cc3F)cc(C)c2n1 [Compound 104]
2. Cc1cn2cc(NC(=O)c3sc(N4CCNC(C)C4)cc3F)cc(F)c2n1 (stereo not drawn) [Compound 128]
3. Cc1cn2cc(NC(=O)c3sc(C4CCNCC4)cc3F)c(C)cc2n1 [Compound 178]

["> 7.00", "5.00 to 6.00", "5.00 to 6.00"]

Provide pIC50 for all items below, preserving their order.
1. Cc1cn2cc(NC(=O)c3sc(N4CCN(C)CC4)cc3F)cc(F)c2n1 [Compound 127]
2. Cn1cc2ccc(NC(=O)c3sc(C4CCNCC4)cc3F)cc2n1 [Compound 182]
3. Cc1nc2c(F)cc(NC(=O)c3sc(N4CCNC(C)C4)cc3F)cc2o1 (stereo not drawn) [Compound 164]

1. < 8.00
2. < 8.00
3. 5.00 to 6.00

For each of the items listed, what is its pIC50?
1. Cc1cn2cc(NC(=O)c3sc(N4CCC(NC(C)(C)C)C4)cc3F)cc(F)c2n1 (stereo not drawn) [Compound 137]
2. Cc1cn2cc(NC(=O)c3sc(N(C)C4CCN(C)CC4)cc3F)cc(F)c2n1 [Compound 150]
3. Cc1nc2c(F)cc(NC(=O)c3sc(N4CCNC(C)C4)cc3F)cc2s1 (stereo not drawn) [Compound 165]
4. Cc1cn2cc(NC(=O)c3sc(N4CC(C)(C)NC(C)(C)C4)cc3F)cc(F)c2n1 [Compound 133]

1: < 8.00; 2: 5.00 to 6.00; 3: < 8.00; 4: < 8.00

Give pIC50 for each listed item.
1. CC1CN(c2cc(F)c(C(=O)Nc3cc(F)c4cn(C)nc4c3)s2)CCN1 (stereo not drawn) [Compound 163]
2. Cc1cn2cc(NC(=O)c3sc(C4CCNCC4)cc3F)cc(Cl)c2n1 [Compound 181]
3. Cc1cn2cc(NC(=O)c3sc(N4CCC(N(C)C)C4)cc3F)cc(F)c2n1 (stereo not drawn) [Compound 138]
4. CCN1CCC(c2cc(F)c(C(=O)Nc3cc(F)c4nc(C)cn4c3)s2)CC1 [Compound 146]
5. Cc1cn2cc(NC(=O)c3sc([C@@H]4CCN[C@H](C)C4)cc3F)cc(C(F)(F)F)c2n1 [Compound 196]
6. CC1CN(c2cc(F)c(C(=O)Nc3ccc4cn(C)nc4c3)s2)CCN1 (stereo not drawn) [Compound 162]

1. < 8.00
2. 6.00 to 7.00
3. 5.00 to 6.00
4. 5.00 to 6.00
5. 5.00 to 6.00
6. < 8.00
